tested on: Saccharomyces cerevisiae; experiment: protein stability index of tFT-peptide fusion (C-terminal peptide) (PSI (0-1 scale)); higher = more stable (slower turnover); details: genetic background: wild type; temperature: 30 C;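 further: PSI is a weighted mean of sequencing reads over stability bins, variants kept only with over 10 reads, mCherry proximal and sfGFP distal, peptide attached via GGGS linker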

{"Sequence data": "SSGCVNILIDLF", "Assay system": "Saccharomyces cerevisiae", "protein stability index": 0.638}
{"Sequence data": "FQNFTLSQEQSE", "Assay system": "Saccharomyces cerevisiae", "protein stability index": 0.717}
{"Sequence data": "NKNTEMNKTQWR", "Assay system": "Saccharomyces cerevisiae", "protein stability index": 0.702}
{"Sequence data": "LLRLPCHLSQAS", "Assay system": "Saccharomyces cerevisiae", "protein stability index": 0.68}
{"Sequence data": "FCFVRGLLFLFF", "Assay system": "Saccharomyces cerevisiae", "protein stability index": 0.442}
{"Sequence data": "GGGRWSAGVVEG", "Assay system": "Saccharomyces cerevisiae", "protein stability index": 0.829}
{"Sequence data": "TFLFARLSFCKH", "Assay system": "Saccharomyces cerevisiae", "protein stability index": 0.613}
{"Sequence data": "LLVRYYLFYVLV", "Assay system": "Saccharomyces cerevisiae", "protein stability index": 0.351}
{"Sequence data": "HKGRVRACVFGV", "Assay system": "Saccharomyces cerevisiae", "protein stability index": 0.666}
{"Sequence data": "IRRKLINYIKKG", "Assay system": "Saccharomyces cerevisiae", "protein stability index": 0.619}
